# log10 of IC50 listing for each entry below
- System Under Test: human V2 receptor (Homo sapiens)
- Sequence (P30518 whole entry): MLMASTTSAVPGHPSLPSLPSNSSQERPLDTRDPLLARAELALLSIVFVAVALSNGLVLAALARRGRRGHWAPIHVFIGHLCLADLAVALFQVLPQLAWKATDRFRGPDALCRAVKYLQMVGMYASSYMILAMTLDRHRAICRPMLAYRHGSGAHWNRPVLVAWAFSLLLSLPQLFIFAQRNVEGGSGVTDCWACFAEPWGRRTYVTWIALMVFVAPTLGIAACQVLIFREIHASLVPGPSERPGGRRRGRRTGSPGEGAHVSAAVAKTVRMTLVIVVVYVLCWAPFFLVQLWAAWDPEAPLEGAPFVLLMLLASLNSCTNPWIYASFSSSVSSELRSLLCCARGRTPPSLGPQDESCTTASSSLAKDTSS
- Assay Comment: Cellular in vitro assay for determining vasopressin receptor activity (V2, CRE-luciferase)
- Assay Context: CHO cell line transfected with human V2 receptor; [Arg8]-vasopressin at EC50 concentration; read-out: IC50 hV2
A difference of one corresponds to tenfold IC50; all values are log10 with IC50 in nM.

Illustrative cases are given below, each with its answer.
log10 of IC50 recorded for this compound, C[C@H](O)c1nc(Cn2nc(-c3ccc(Cl)cc3)n(C[C@H](O)C(F)(F)F)c2=O)nn1-c1cccc(F)n1 , is 1.60

log10 of IC50 recorded for this compound, C[C@H](O)c1nc(Cn2nc(-c3ccc(Cl)cc3)n(C[C@H](O)C(F)(F)F)c2=O)nn1-c1ncccc1OC(F)(F)F , is 1.81

log10 of IC50 recorded for this compound, C[C@H](O)c1nc(Cn2nc(-c3ccc(Cl)cc3)n(C[C@H](O)C(F)(F)F)c2=O)nn1-c1ccncc1Cl , is 1.20

Further cases:
log10 of IC50 recorded for this compound, CC(O)c1nc(Cn2nc(-c3ccc(Cl)cc3)n(C[C@H](O)C(F)(F)F)c2=O)nn1-c1cccnc1 (single isomer, unassigned) [Example 25] , is 2.38

log10 of IC50 recorded for this compound, C[C@H](O)c1nc(Cn2nc(-c3ccc(Cl)cc3)n(C[C@H](O)C(F)(F)F)c2=O)nn1-c1nccs1 , is 2.02

====

- System Under Test: human V2 receptor (Homo sapiens)
- Construct: expressed in transfected cells; host or cells: CHO K1 (ATCC) expressing firefly luciferase under a CRE-responsive promoter
- Assay Comment: Cellular in vitro assay for determining vasopressin receptor activity (V2, CRE-luciferase)
- Format: cell-based
- Assay Context: CHO cell line transfected with human V2 receptor; [Arg8]-vasopressin at EC50 concentration; read-out: IC50 hV2
Classify: 1.0 when IC50 is strictly less than 40 nM; 0.0 when IC50 is not.

Say whether its IC50 is strictly beneath 40 nM. Entry: COc1cccnc1-n1nc(Cn2nc(-c3ccc(Cl)cc3)n(C[C@H](O)C(F)(F)F)c2=O)nc1[C@H](C)O 1.0

Say whether its IC50 is strictly beneath 40 nM. Entry: C[C@H](O)c1nc(Cn2nc(-c3ccc(Cl)cc3)n(C[C@H](O)C(F)(F)F)c2=O)nn1-c1cnccc1Cl 1.0

Say whether its IC50 is strictly beneath 40 nM. Entry: C[C@H](O)c1nc(Cn2nc(-c3ccc(Cl)cc3)n(C[C@H](O)C(F)(F)F)c2=O)nn1-c1nccn1C 0.0

Say whether its IC50 is strictly beneath 40 nM. Entry: C[C@H](O)c1nc(Cn2nc(-c3ccc(Cl)cc3)n(C[C@H](O)C(F)(F)F)c2=O)nn1-c1ncccc1Cl 1.0

Say whether its IC50 is strictly beneath 40 nM. Entry: C[C@H](O)c1nc(Cn2nc(-c3ccc(Cl)cc3)n(C[C@H](O)C(F)(F)F)c2=O)nn1-c1ccncc1 0.0

Further cases:
Say whether its IC50 is strictly beneath 40 nM. Entry: C[C@@H](O)c1nc(Cn2nc(-c3ccc(Cl)cc3)n(C[C@H](O)C(F)(F)F)c2=O)nn1-c1ncccc1OC(F)(F)F 0.0

Say whether its IC50 is strictly beneath 40 nM. Entry: CC(O)c1nc(Cn2nc(-c3ccc(Cl)cc3)n(C[C@H](O)C(F)(F)F)c2=O)nn1-c1cncc(Cl)c1 (single isomer, unassigned) [Example 29] 1.0

Say whether its IC50 is strictly beneath 40 nM. Entry: C[C@H](O)c1nc(Cn2nc(-c3ccc(Cl)cc3)n(C[C@H](O)C(F)(F)F)c2=O)nn1-c1cnccn1 0.0

Say whether its IC50 is strictly beneath 40 nM. Entry: C[C@H](O)c1nc(Cn2nc(-c3ccc(Cl)cc3)n(C[C@H](O)C(F)(F)F)c2=O)nn1-c1cccnn1 0.0

Say whether its IC50 is strictly beneath 40 nM. Entry: C[C@H](O)c1nc(Cn2nc(-c3ccc(Cl)cc3)n(C[C@H](O)C(F)(F)F)c2=O)nn1-c1ncccc1C(F)(F)F 0.0
